The measurements presented in this section are drawn from paper PMC11920416.

- measured on: porcine ficolin 2 (FCN2) (Sus scrofa)
- Sequence (Q29041 27-323): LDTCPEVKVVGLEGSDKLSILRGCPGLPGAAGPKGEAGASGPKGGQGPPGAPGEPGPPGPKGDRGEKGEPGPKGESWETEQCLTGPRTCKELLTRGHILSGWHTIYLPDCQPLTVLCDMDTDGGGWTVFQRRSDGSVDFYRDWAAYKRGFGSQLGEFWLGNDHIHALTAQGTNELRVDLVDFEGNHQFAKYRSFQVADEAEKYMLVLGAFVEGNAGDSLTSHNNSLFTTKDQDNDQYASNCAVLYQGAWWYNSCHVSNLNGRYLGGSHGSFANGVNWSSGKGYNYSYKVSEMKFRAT
- measurement parameters: 60% (v/v) pig serum, 37 °C, 20 min; PMOXA-coated NPs; S2 site, competitive
recorded endpoint: IC50 (mM)
Respond with the bare value in mM.

// sample CC(=O)N[C@H]1C(O)O[C@H](CO)[C@@H](O)[C@@H]1O (stereo partly shown) [GlcNAc] , its IC50 was 67
